tested on: ebolavirus (EBOV) strain Zaire; test: organism not typed; format: cell-based, Ebola virus; conditions: HeLa, read-out: EC50 (nM) Antigen expression (high content imaging) Ebola Hela
Outcome Measure: EC50 (nM)
Express the result in nM but write the number alone.

Reference set, count: 2
{"Compound": "CC(C)OC(=O)[C@H](C)NP(=O)(OC[C@H]1O[C@@](C#N)(c2ccc3c(N)ncnn23)[C@H](O)[C@@H]1O)Oc1ccccc1 (stereo in doubt)", "EC50 [nM]": 1650}
{"Compound": "C[C@H](NP(=O)(OC[C@H]1O[C@@](C#N)(c2ccc3c(N)ncnn23)[C@H](O)[C@@H]1O)Oc1ccccc1)C(=O)OC1CCC1 (stereo partly drawn)", "EC50 [nM]": 785}

Now consider the entry below.
Ask: Requested read-out: EC50. Entry: C[C@H](N[P@](=O)(OC[C@H]1O[C@@](C#N)(c2ccc3c(N)ncnn23)[C@H](O)[C@@H]1O)Oc1ccccc1)C(=O)OCC(C)(C)C
Reply: 182
